- System: Fibroblast
- experimentalDetails: Multiplex assay against human fibroblast
- Format: toxicity, cell-based
- studyConditions: 48 h, 10 µM, compound concentration 10 uM, replicate 2
Entries and their measured Population Mitochondria Different-Phenotype (%) follow.
endpoint: Population Mitochondria Different-Phenotype (%)

1) C[C@@]1(C(=O)Nc2ccc(F)nc2)CCCN1c1nc(Nc2cc(C3CC3)n[nH]2)c2cccn2n1: 43
2) CNc1nc(NCc2ccc(NS(C)(=O)=O)cc2Cl)cc(-c2ccccn2)n1: 3
3) O=C1NCN(c2ccccc2)C12CCN(CCCOc1ccc(F)cc1)CC2 [SPIRAMIDE]: 2
4) C[C@@H](NCCCc1cccc(C(F)(F)F)c1)c1cccc2ccccc12.Cl [CINACALCET HYDROCHLORIDE]: 25

###

- System: U2OS
- experimentalDetails: Multiplex assay against U2OS
- Assay type: toxicity, cell-based
- studyConditions: human, 24 h, 10 µM, compound concentration 10 uM, replicate 1
Entries and their measured Population Hoechst High Intensity Objects (%) follow.
endpoint: Population Hoechst High Intensity Objects (%)

1. CN1CCN(CCOc2cc(OC3CCOCC3)c3c(Nc4c(Cl)ccc5c4OCO5)ncnc3c2)CC1: 5
2. C[C@@H](NCCCc1cccc(C(F)(F)F)c1)c1cccc2ccccc12.Cl [CINACALCET HYDROCHLORIDE]: 6
3. CC[C@H](C)C(=O)O[C@H]1C[C@@H](C)C=C2C=C[C@H](C)[C@H](CC[C@@H]3C[C@@H](O)CC(=O)O3)[C@H]21: 6
4. Cn1cc(-c2[nH]c3cc(NC(=O)[C@H](N)C4CCCCC4)cc4c3c2C=NNC4=O)cn1: 8
5. CC(C)(O)CNc1ncc(-c2ccnc(Nc3ccnc(Cl)c3)n2)c(CC2CC2)n1: 12
6. CNc1nc(NCc2ccc(NS(C)(=O)=O)cc2Cl)cc(-c2ccccn2)n1: 8
7. CN(C)C(=O)N[C@H]1CC[C@H](CCN2CCN(c3cccc(Cl)c3Cl)CC2)CC1.Cl [CARIPRAZINE HYDROCHLORIDE]: 13
8. Cc1c(-c2ccc(O)cc2)n(Cc2ccc(OCCN3CCCCCC3)cc2)c2ccc(O)cc12: 4

###

- System: U2OS
- experimentalDetails: Multiplex assay against U2OS
- Format: toxicity, cell-based
- studyConditions: human, 48 h, 1 µM, compound concentration 1 uM, replicate 2
Entries and their measured Population Apoptotic (%) follow.
endpoint: Population Apoptotic (%)

1. Cn1cc(-c2[nH]c3cc(NC(=O)[C@H](N)C4CCCCC4)cc4c3c2C=NNC4=O)cn1: 42
2. O=C1NCN(c2ccccc2)C12CCN(CCCOc1ccc(F)cc1)CC2 [SPIRAMIDE]: 16
3. Cc1[nH]c(/C=C2\C(=O)Nc3ccc(S(=O)(=O)N(C)c4cccc(Cl)c4)cc32)c(C)c1C(=O)N1CCN(C)CC1: 25
4. CN1CCC[C@@H]1CCO[C@](C)(c1ccccc1)c1ccc(Cl)cc1.O=C(O)/C=C/C(=O)O [CLEMASTINE FUMARATE]: 31
5. Cl.N#Cc1ccc2[nH]cc(CCCCN3CCN(c4ccc5oc(C(N)=O)cc5c4)CC3)c2c1 [VILAZODONE HYDROCHLORIDE]: 40
6. CC(C)NCC(O)COc1ccc(CCOCC2CC2)cc1.Cl (centres undefined) [BETAXOLOL HYDROCHLORIDE]: 50
7. CC[C@H](C)C(=O)O[C@H]1C[C@@H](C)C=C2C=C[C@H](C)[C@H](CC[C@@H]3C[C@@H](O)CC(=O)O3)[C@H]21: 0
8. CNc1nc(NCc2ccc(NS(C)(=O)=O)cc2Cl)cc(-c2ccccn2)n1: 0
9. CN(C)C(=O)N[C@H]1CC[C@H](CCN2CCN(c3cccc(Cl)c3Cl)CC2)CC1.Cl [CARIPRAZINE HYDROCHLORIDE]: 50
10. Cc1nc(-c2ccc(-c3ccc(C(=O)N4CCc5cc6c(cc54)C4(CCN(C)CC4)CO6)cc3)c(C)c2)no1: 50
11. CN(C)C(=O)/C(C#N)=C/c1ccc(-c2nc3cnc4[nH]ccc4c3n2C2CCCCC2)o1: 30
12. OC1(c2ccc(Cl)cc2)CCN(Cc2c[nH]c3ccccc23)CC1: 41
13. Cc1csc2c(N[C@@H](C)CN3CCN(S(=O)(=O)c4ccc(Cl)c(Cl)c4)CC3)ncnc12: 25
14. COc1cc(-n2cnc3cc(-c4ccc(Cl)cc4)sc3c2=O)ccc1OCCN1CCCC1: 63
